# Relative cAMP EC50 listing for each entry below
TESTED_ON: T1, human GIP receptor (human) (UniProt P48546)
T1 sequence (looked up): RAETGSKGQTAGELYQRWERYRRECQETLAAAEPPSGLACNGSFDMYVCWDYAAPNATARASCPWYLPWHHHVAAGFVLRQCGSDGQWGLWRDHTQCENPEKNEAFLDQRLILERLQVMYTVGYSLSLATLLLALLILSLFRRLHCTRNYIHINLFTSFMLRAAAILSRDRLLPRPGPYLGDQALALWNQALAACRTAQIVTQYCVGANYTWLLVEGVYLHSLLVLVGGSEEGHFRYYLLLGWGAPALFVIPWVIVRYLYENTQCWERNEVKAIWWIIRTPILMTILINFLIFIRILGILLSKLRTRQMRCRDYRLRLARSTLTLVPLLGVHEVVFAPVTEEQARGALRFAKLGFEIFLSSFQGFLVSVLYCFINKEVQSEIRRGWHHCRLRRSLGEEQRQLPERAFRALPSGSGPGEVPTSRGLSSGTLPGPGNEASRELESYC
ASSAY_NAME: cell-based or functional assay
Starred links: 1 amine or outer side, 2 acyl side, 3 side chain; linkers in the order of their positions; H or OH if unused. Non-standard residues stand in square brackets, D forms with d. Groups on a side chain read outwards from the residue. No end group written: not given here. *: point of attachment. C20 diacid = O=C(O)CCCCCCCCCCCCCCCCCCC(=O)*; γGlu = O=C(O)[C@H](CCC(=O)[*:2])N[*:1]; αMeL = CC(C)C[C@](C)(N)C(=O)O; AEEA = NCCOCCOCC(=O)O; Aib = CC(C)(N)C(=O)O
Expressed in nM, but write only the number.

Look over these answered cases.
binder="YXQGTFTSDXSQXLDXKAQXAFIEXLIEXGPSSGAPPPSGSEE (non-natural residues; acylated Lys; C-terminal amide; synthetic construct; SITE 2: note = 2-Aminoisobutyric Acid; SITE 10: note = 3-(4-Pyridyl)-L-alanine; SITE 13: note = alpha-methyl-leucine; SITE 16: note = L-ornithine; SITE 17: note = Lysine is chemically modified through conjugation of the epsilon-amino group of the Lysine side chain with D-Glutami) [Example 1112]" unit_tag=nM numeric_value=0.254
binder="Y[Aib]QGTFTSDYSI[αMeL]LDKQAAK([AEEA-AEEA-γGlu-C20 diacid])QFVEWLIAGGPSSGEPPPAEG-NH2 [Example 332]" unit_tag=nM numeric_value=0.413

We now examine a further binder.
// query Look up Relative cAMP EC50: YXQGTFTSDXSXXLDXKAQXAFIEYLLAGGPSSGAPPPSGSEE (C-terminal amide; lysine acylated with (γ-Glu)2-C18 diacid; synthetic construct; SITE 2: note = 2-Aminoisobutyric Acid; SITE 10: note = 3-(4-Pyridyl)-L-alanine; SITE 12: note = L-ornithine; SITE 13: note = alpha-methyl-leucine; SITE 16: note = L-ornithine; SITE 17: note = Lysine is chemically modified through conjugation of the epsilon-amino group of the Lys) [Example 1068]
// result 0.211
